Known PBM binding z-score of a selection of sequences
Test system: PPARg:RXRa (NR concentration 180 nM, RXRa partner concentration 90 nM)
measurement-description: PBM binding z-score (relative to random genomic background probes); higher = stronger binding; sequences stand for … in GC…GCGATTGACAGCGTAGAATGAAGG
Response field accepts a number only; no unit should be typed.

Some entries whose results are on file:
> print(dat)
                       entry.sequence                                    target  reported.measurement
1  CGTCCAAGGTCAATACTAGGTCAGTGAAAGCATT  PPARg:RXRa (NR concentration 180 nM, RXRa partner concentration 90 nM)                  4.52
2  TTACCAAGGTGAGCTGAGGTCGTTTATCCAACTC  PPARg:RXRa (NR concentration 180 nM, RXRa partner concentration 90 nM)               -0.0022
3  GAAACAGGGTCAGCTAGAGGCCAGAGTATGGAAA  PPARg:RXRa (NR concentration 180 nM, RXRa partner concentration 90 nM)                  4.24
4  CCTAGCAGGCCAACCTGGGTCACTCAAGGCTTGA  PPARg:RXRa (NR concentration 180 nM, RXRa partner concentration 90 nM)                 0.131

Task: Query (sequence): ACTAGCAGGCCAAGGGTCACTCCAGATTAGTCCG ; field requested: PBM binding z-score
Result: 7.89

Task: Queued: CGAACTAGGTCATTCACAGGACAGTGAATAGTAA
Result: 7.34

---

Test system: RARg:RXRa (NR concentration 270 nM, RXRa partner concentration 90 nM)
measurement-description: PBM binding z-score (relative to random genomic background probes); higher = stronger binding; sequences stand for … in GC…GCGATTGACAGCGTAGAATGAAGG
measured-endpoint: PBM binding z-score

Some entries whose results are on file:
> print(dat)
                       entry.sequence  reported.measurement
1  TGAATTAGGTTATAAGATCAGGGAACGTTGCAAA                 0.498
2  ATATGTAGGTTATGGGGTCATTCAGTTTGCGCAT                  5.29
3  CCTAGTTGGTCAAGGTCACTCACGCTATAGGTAC                  4.06

Next sequence, please.
Task: Query (sequence): CCTATTAGTTGACTATAAGGGCAACCGAAGCTCG ; field requested: PBM binding z-score
Result: 1.15

---

Test system: PXR:RXRa (NR concentration 270 nM, RXRa partner concentration 90 nM)
measurement-description: PBM binding z-score (relative to random genomic background probes); higher = stronger binding; sequences stand for … in GC…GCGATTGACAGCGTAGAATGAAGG
Kindly return rule met if reported PBM binding z-score is no lower than 0.3; return rule not met if it is lower.

Past entries and their recorded results:
> print(dat)
                       entry.sequence  category.label
1  CGTCCAAGGTCAGCAGGTCAGTAAAAGCGACGTG        rule met
2  ACAGACAGGTGAGTGAAGGTAAATCAGCTGGACG    rule not met
3  CCGACTCGGGCAAGGTTACCATAACGCACAGCCA    rule not met

Task: I'd appreciate it if you could say whether ATCTCTAGGTAAAGATAGTTCAGTGCATGCAAAT has PBM binding z-score at least equal to 0.3.
Result: rule met

Task: Queued: GCTATTAGCTGAAAGGGCAACCGAATGATTCTCG
Result: rule met

Task: Queued: TCTTTTAGATCAGCAGGTTAAGAAAGCTGGCCAA
Result: rule met

The values you see were collected from the supplement of paper PMC6555819.
